Reported cell viability values are given for each entry in this list.
# System: NOMO1
# Test: cell viability relative to DMSO control; higher = less cytotoxic
# Test conditions: RPMI 5 mM glucose + 10% dialyzed FBS; 48 h; 46.1 µM

# Molecule, cell viability, %
rows = [
    ("CC(=O)Oc1cc2c(s1)CCN(C(C(=O)C1CC1)c1ccccc1F)C2.Cl (stereo not drawn)", 25.1),
    ("CCCC1=N[N](C)C2=C1\\N=C(/NC2=O)C3=CC(=CC=C3OCC)[S+]([O-])(=O)N4CCN(C)CC4", 80.8),
    ("Oc1cc2c(cc1O)C1c3ccc(O)c(O)c3OCC1(O)C2 (stereo not drawn)", 102),
    ("CO[C@@H]1[C@@H](OC(N)=O)[C@@H](O)[C@H](OC2=CC=C3\\C(=C(NC(=O)C4=CC=C([O-])C(=C4)CC=C(C)C)/C(=O)OC3=C2C)O)OC1(C)C", 35.9),
    ("COc1ccc(C(=O)CC(=O)c2ccc(C(C)(C)C)cc2)cc1", 111),
    ("O=C(c1ccc(/C=C/c2n[nH]c3ccccc23)cc1)N1CCNCC1", 71.2),
    ("CC(C)(C)Cn1c(N)nc2ccc(-c3[nH]c(C(C)(C)C)nc3-c3ccc(F)cc3)nc21", 71.4),
    ("CCNC(=O)Nc1ccc(-c2nc3c(c(N4CCOC[C@@H]4C)n2)CCN(C2COC2)C3)cc1", 45.4),
    ("O=C1CCC[C@@H]2[C@H]3CCC[N+]4([O-])CCC[C@@H](CN12)[C@@H]34 (stereo partly drawn)", 5.35),
    ("CN1/C=C(\\N=C(NC2=CC=C(C=C2)C(=O)N3CCOCC3)/C1=O)/C4=C(C)C(=CC=C4)NC(=O)C5=CC=C(C=C5)C(C)(C)C", 77.2),
    ("COC1=CC(=CC=C1)C2=CC=C(NC(=O)/C3=C(/CCC3)C(O)=O)C(=C2)F", 63.8),
    ("C/C(=C\\c1csc(C)n1)[C@@H]1C[C@@H]2O[C@]2(C)CCC[C@H](C)[C@H](O)[C@@H](C)C(=O)C(C)(C)[C@@H](O)CC(=O)O1", 20),
    ("NC(=O)c1ccc(-c2nc(-c3ccc4c(c3)OCO4)c(-c3ccccn3)[nH]2)cc1", 105),
    ("O=C(O)CSCC(=O)NC1CCSC1=O (stereo not drawn)", 102),
    ("CN1C2=CC(=O)/C(=N/NC(N)=O)C=C2CC1S(=O)(=O)[O-].[Na+] (stereo not drawn)", 103),
    ("O=P1(N(CCCl)CCCl)NCCCO1 (stereo not drawn)", 50.7),
    ("CC1(C)Cc2c(sc(NC(=S)NC(=O)c3ccccc3)c2C(=O)O)CO1", 102),
    ("COc1cccc2c(NCc3ccccc3)nc(-n3c(N)nc4ccccc43)nc12", 23.3),
]

###

cell viability overview
# Tested on: P12-Ichikawa
# Test: cell viability relative to DMSO control; higher = less cytotoxic
# Test conditions: RPMI 5 mM glucose + 10% dialyzed FBS; 48 h; 46.1 µM
Assay endpoint: cell viability (%)

# Molecule, Assayed system, Assay endpoint, Result number
rows = [
    ("C=C[C@H]1CN2CCC1C[C@@H]2[C@@H](O)c1ccnc2ccccc12 (stereo partly specified)", "P12-Ichikawa", "cell viability", 67.9),
    ("CN(C)CC[C@H](CSc1ccccc1)Nc1ccc([S+](=O)([O-])NC(=O)c2ccc(N3CCN(Cc4ccccc4-c4ccc(Cl)cc4)CC3)cc2)cc1[N+](=O)[O-]", "P12-Ichikawa", "cell viability", 4.13),
    ("O=C(Nc1ccc([N+](=O)[O-])cc1Cl)c1cc(Cl)ccc1O", "P12-Ichikawa", "cell viability", 5.22),
    ("CCCCOc1ccc(CC(=O)NO)cc1", "P12-Ichikawa", "cell viability", 59.2),
    ("CCCC1=N[N](C)C2=C1\\N=C(/NC2=O)C3=CC(=CC=C3OCC)[S+]([O-])(=O)N4CCN(C)CC4", "P12-Ichikawa", "cell viability", 33.1),
    ("O=C(O)CSCC(=O)NC1CCSC1=O (stereo unspecified)", "P12-Ichikawa", "cell viability", 111),
    ("Cn1cnc(-c2cc3nccc(Oc4ccc(NC(=S)NC(=O)Cc5ccccc5)cc4F)c3s2)c1", "P12-Ichikawa", "cell viability", 15.4),
    ("O=[N+]([O-])c1ccc(Nc2ccccc2-c2ccccc2)c2nonc12", "P12-Ichikawa", "cell viability", 84.9),
    ("CN[C@H]1[C@H](O[C@@H]2[C@H](O[C@@H]3[C@@H](O)[C@@H](O)[C@@H](NC(=N)N)[C@@H](O)[C@H]3NC(=N)N)O[C@H](C)[C@@]2(O)C=O)O[C@@H](CO)[C@@H](O)[C@H]1O", "P12-Ichikawa", "cell viability", 116),
    ("Cn1c(=O)c2[nH]cnc2n(C)c1=O", "P12-Ichikawa", "cell viability", 94.2),
    ("CCC[C@@H](C=O)NC(=O)[C@H](CC(C)C)NC(=O)[C@H](CC(C)C)NC(=O)OCc1ccccc1", "P12-Ichikawa", "cell viability", 5.01),
    ("O=C(c1ccc(/C=C/c2n[nH]c3ccccc23)cc1)N1CCNCC1", "P12-Ichikawa", "cell viability", 31.2),
    ("O=C([O-])[C@H](CC(=O)N1C[C@H]2CCCC[C@H]2C1)Cc1ccccc1", "P12-Ichikawa", "cell viability", 129),
    ("N#CC1(c2ccc(NC(=O)c3cccnc3NCc3ccncc3)cc2)CCCC1", "P12-Ichikawa", "cell viability", 90.8),
    ("CCN1\\C=C(C(O)=O)/C(=O)C2=C1C=C(N3CCN(C)CC3)C(=C2)F", "P12-Ichikawa", "cell viability", 61.9),
    ("C[C@H]1C[C@H]2[C@@H]3CCC4=CC(=O)C=C[C@]4(C)[C@H]3C(=O)C[C@]2(C)[C@@]1(O)C(=O)CO", "P12-Ichikawa", "cell viability", 70.5),
    ("COc1ccc(CC2c3cc(OC)c(OC)cc3CC[N+]2(C)CCC(=O)OCCCCCOC(=O)CC[N+]2(C)CCc3cc(OC)c(OC)cc3C2Cc2ccc(OC)c(OC)c2)cc1OC (stereo unspecified)", "P12-Ichikawa", "cell viability", 90.7),
    ("COc1cc(Nc2ncc(F)c(Nc3ccc4c(n3)N(COP(=O)(O)O)C(=O)C(C)(C)O4)n2)cc(OC)c1OC", "P12-Ichikawa", "cell viability", 91.6),
    ("O=C(C[C@@H]1C/C=C\\CCC(=O)O[C@H](c2ccccc2)CNC1=O)NCc1ccc(Cl)cc1", "P12-Ichikawa", "cell viability", 113),
    ("O=C(NCCO[N+](=O)[O-])c1cccnc1", "P12-Ichikawa", "cell viability", 117),
    ("CCc1c(O)cc(O)c(C(=O)c2ccc(OCCN3CCOCC3)c(OC)c2)c1CC(=O)N(CCOC)CCOC", "P12-Ichikawa", "cell viability", 35),
    ("CCCCCCCCOc1ccccc1C(=O)Nc1ccc(C(=O)OCC[N+](C)(CC)CC)cc1", "P12-Ichikawa", "cell viability", 46.4),
    ("O=C(O)[C@@H](c1ccc(OCc2ccc3ccccc3n2)cc1)C1CCCC1", "P12-Ichikawa", "cell viability", 100),
    ("C[N]1N=CC2=C1C=C(C(=C2)OC3=CC=C(NC(=O)\\C4=C\\C=C(\\C)N(C4=O)C5=CC=C(F)C=C5)C=C3F)C6=C[NH]N=C6", "P12-Ichikawa", "cell viability", 16.3),
    ("O=C(C1CC1)N1CC[C@@H](Cn2c(-c3ccc(-c4ccc5occc5c4)cc3)nc3cnccc32)C1", "P12-Ichikawa", "cell viability", 93),
    ("C/C(=C\\c1csc(C)n1)[C@@H]1C[C@@H]2O[C@]2(C)CCC[C@H](C)[C@H](O)[C@@H](C)C(=O)C(C)(C)[C@@H](O)CC(=O)O1", "P12-Ichikawa", "cell viability", 38),
]

###

The following compounds are shown together with reported cell viability values.
# Tested on: SEM cells
# Test: cell viability relative to DMSO control; higher = less cytotoxic
# Test conditions: RPMI 5 mM glucose + 10% FBS; 48 h; 0.0632 µM

# Compound, Assayed system, cell viability / %
rows = [
    ("CNC(=O)c1ccc(N2C(=S)N(c3ccc(C#N)c(C(F)(F)F)c3)C(=O)C2(C)C)cc1F", "SEM cells", 73.9),
    ("Nc1nc(Nc2ccc([S+](N)(=O)[O-])cc2)nn1C(=O)c1c(F)cccc1F", "SEM cells", 114),
    ("CCCc1nc2c(C)cc(-c3nc4ccccc4n3C)cc2n1Cc1ccc(-c2ccccc2C(=O)O)cc1", "SEM cells", 124),
    ("CN1/C=C(\\N=C(NC2=CC=C(C=C2)C(=O)N3CCOCC3)/C1=O)/C4=C(C)C(=CC=C4)NC(=O)C5=CC=C(C=C5)C(C)(C)C", "SEM cells", 101),
    ("NC(=O)c1cnc(-c2ccc(C3(N)CCC3)cc2)c(-c2ccccc2)c1", "SEM cells", 108),
    ("Cn1cc(-c2cnn3c(N)c(Br)c([C@@H]4CCCNC4)nc23)cn1", "SEM cells", 91.8),
    ("NCCCCCC(=O)O", "SEM cells", 103),
    ("CN(C)/[N+]([O-])=N/Oc1cc(ON[N+](=O)N2CCN(C(=O)c3cc(Cc4n[nH]c(=O)c5ccccc45)ccc3F)CC2)c([N+](=O)[O-])cc1[N+](=O)[O-]", "SEM cells", 100),
    ("O=C(c1ccc(/C=C/c2n[nH]c3ccccc23)cc1)N1CCNCC1", "SEM cells", 82.7),
    ("CN(c1nccc(=O)[nH]1)C1CCN(c2nc3ccccc3n2Cc2ccc(F)cc2)CC1", "SEM cells", 84.8),
    ("CCCC1=N[N](C)C2=C1\\N=C(/NC2=O)C3=CC(=CC=C3OCC)[S+]([O-])(=O)N4CCN(C)CC4", "SEM cells", 66.6),
    ("CN1C2=CC(=O)/C(=N/NC(N)=O)C=C2CC1S(=O)(=O)[O-].[Na+] (stereo not drawn)", "SEM cells", 103),
    ("CN(C)CC[C@H](CSc1ccccc1)Nc1ccc([S+](=O)([O-])NC(=O)c2ccc(N3CCN(Cc4ccccc4-c4ccc(Cl)cc4)CC3)cc2)cc1[N+](=O)[O-]", "SEM cells", 73.8),
    ("CNC(=O)c1cc(Oc2ccc(NC(=O)Nc3ccc(Cl)c(C(F)(F)F)c3)cc2)ccn1", "SEM cells", 70.8),
    ("CCC(=O)OC1CCC2C3CCC/4=C/C(=O)CC[C@@]4(C)C3CC[C@]12C (stereo partly drawn)", "SEM cells", 133),
    ("Cc1cc(SCc2sc(-c3ccc(C(F)(F)F)cc3)nc2C)ccc1OCC(=O)O", "SEM cells", 102),
    ("CN1CC/C(CC1)=C3\\c4ccccc4CC(=O)c2sccc23", "SEM cells", 127),
    ("C[C@H]1C[C@H]2[C@@H]3CCC4=CC(=O)C=C[C@]4(C)[C@H]3C(=O)C[C@]2(C)[C@@]1(O)C(=O)CO", "SEM cells", 72.5),
    ("CO[C@H]1/C=C/O[C@@]2(C)Oc3c(C)c(O)c4c(O)c(c(/C=N/N5CCN(C)CC5)c(O)c4c3C2=O)NC(=O)/C(C)=C\\C=C\\[C@H](C)[C@H](O)[C@@H](C)[C@@H](O)[C@@H](C)[C@H](OC(C)=O)[C@@H]1C", "SEM cells", 77.1),
    ("CCCCOc1ccc(CC(=O)NO)cc1", "SEM cells", 97),
    ("COc1ccc(C(=O)CC(=O)c2ccc(C(C)(C)C)cc2)cc1", "SEM cells", 99),
    ("COc1ccccc1OCCNCC(O)COc1cccc2[nH]c3ccccc3c12 (stereo not drawn)", "SEM cells", 125),
    ("C[N+](C)(C)CC(=O)O.[Cl-]", "SEM cells", 81.8),
    ("O=C(O)CSCC(=O)NC1CCSC1=O (stereo not drawn)", "SEM cells", 107),
    ("O=[N+]([O-])c1ccc(Nc2ccccc2-c2ccccc2)c2nonc12", "SEM cells", 77.6),
    ("C/C(=C\\c1csc(C)n1)[C@@H]1C[C@@H]2O[C@@H]2CCC[C@H](C)[C@H](O)[C@@H](C)C(=O)C(C)(C)[C@@H](O)CC(=O)O1", "SEM cells", 16.4),
    ("OCCNC1CCCc2c1[nH]c1ccc(-c3ccccc3)cc21 (stereo not drawn)", "SEM cells", 108),
    ("C[C@@H](NCc1cc2ccccc2[nH]1)c1cccc2ccccc12", "SEM cells", 74.5),
]
